parameter: melting point

Record excerpt, results attached:
Sure, the documented melting point for COc1cc(OCc2cnc(Cl)cn2)ccc1-c1c[nH]c(-c2ccc(Cl)nc2)n1 is 219 to 221 °C

Sure, the documented melting point for COc1cc(OCc2ncc(Cl)cc2Br)ccc1-c1[nH]c(-c2ccc(F)nc2)nc1Cl is 195 to 199 °C

Sure, the documented melting point for COc1cc(-c2cnc(C3CCC(F)(F)CC3)[nH]2)ccc1OCc1ccc(C(F)(F)F)nc1 is 162 to 167 °C

Sure, the documented melting point for COc1cc(-c2c[nH]c(-c3ccc(F)nc3)n2)cc(OC)c1OCc1ccc(C(F)(F)F)cn1 is 107 to 110 °C

---
Sure, the documented melting point for COc1cc(OCc2cnc(Cl)s2)ccc1-c1cnc(-c2ccc(F)nc2)[nH]1 is 109 to 116 °C

Sure, the documented melting point for COc1cc(OCc2ncc(C(F)(F)F)cc2F)ccc1-c1[nH]c(C2CCC(F)(F)CC2)nc1Cl is 172 to 174 °C

Sure, the documented melting point for COc1cc(-c2c[nH]c(C3CCC(C)CC3)n2)ccc1OCc1ccc(C(F)(F)F)cn1 (centres unmarked) is 147 to 150 °C

Sure, the documented melting point for COc1cc(OCc2ccc(C(F)(F)F)cn2)ccc1-c1c(Cl)nc(-c2ccc(F)nc2)n1C is 142 to 144 °C
